Measured On: FgTGRsec (TrxR activity) (Fasciola gigantica, UniProt A0A0K1NYF8)
Sequence (A0A0K1NYF8 entry or part of it): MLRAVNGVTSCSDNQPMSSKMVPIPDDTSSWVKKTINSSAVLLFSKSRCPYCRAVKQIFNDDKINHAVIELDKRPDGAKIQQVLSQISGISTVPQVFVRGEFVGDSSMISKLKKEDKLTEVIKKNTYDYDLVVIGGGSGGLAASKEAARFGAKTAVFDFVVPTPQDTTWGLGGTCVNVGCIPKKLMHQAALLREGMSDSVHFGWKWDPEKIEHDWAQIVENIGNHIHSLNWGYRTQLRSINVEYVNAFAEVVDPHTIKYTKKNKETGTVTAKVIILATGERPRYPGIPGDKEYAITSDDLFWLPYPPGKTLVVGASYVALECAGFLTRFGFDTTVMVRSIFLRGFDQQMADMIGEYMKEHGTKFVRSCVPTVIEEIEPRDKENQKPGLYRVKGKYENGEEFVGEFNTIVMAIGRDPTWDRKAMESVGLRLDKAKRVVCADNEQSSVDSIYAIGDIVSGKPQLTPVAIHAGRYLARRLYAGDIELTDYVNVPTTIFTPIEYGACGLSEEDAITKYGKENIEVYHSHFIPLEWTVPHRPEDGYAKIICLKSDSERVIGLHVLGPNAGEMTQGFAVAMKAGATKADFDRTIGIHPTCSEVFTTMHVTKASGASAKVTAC
Protocol: DTNB-based TrxR activity inhibition assay of FgTGRsec
Format: biochemical
Particulars: DTNB reduction, 20 min incubation, triplicate, read-out: IC50 of rFgTGRsec
Assay Readout: IC50
I'd appreciate it if you included the unit after the number.

IN: Dear colleague, I am looking for the recorded IC50 of the following molecule: [O-][n+]1onc(-c2cccc(Cl)c2)c1CO
OUT: 3.82 µM

IN: Dear colleague, I am looking for the recorded IC50 of the following molecule: [O-][n+]1onc(-c2ccc(C(F)(F)F)cc2)c1CN1CCN(c2ccccc2F)CC1
OUT: 18.5 µM

IN: Dear colleague, I am looking for the recorded IC50 of the following molecule: [O-][n+]1onc(-c2cccnc2)c1CO
OUT: 6.93 µM

IN: Dear colleague, I am looking for the recorded IC50 of the following molecule: [O-][n+]1onc(-c2ccncc2)c1CO
OUT: 15.2 µM

IN: Dear colleague, I am looking for the recorded IC50 of the following molecule: [O-][n+]1onc(-c2ccc(C(F)(F)F)nc2)c1CO
OUT: 4.5 µM
